Tgt: T1, human TL1A extracellular domain with N-terminal HIS and FLAG tag (human, UniProt O95150 72-251)
T1 construct: the whole entry is named; also called TNFSF15
T1 sequence: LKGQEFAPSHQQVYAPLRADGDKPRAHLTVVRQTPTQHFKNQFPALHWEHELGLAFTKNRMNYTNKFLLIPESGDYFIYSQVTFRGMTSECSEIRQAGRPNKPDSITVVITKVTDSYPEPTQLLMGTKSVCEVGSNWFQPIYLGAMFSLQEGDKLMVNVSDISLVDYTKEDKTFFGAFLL
Test Protocol: SPR Run 7, antibody on Protein A, TL1A 5 ug/mL, timepoint 220
Quantity Kind: TL1A Binding Level (Late) (RU)
A number alone suffices; assume RU.

Please review the entries below; each comes with its answer.
320-543 (antibody, human IgG1, name in Kabat numbering, V domains shown, full-length human IgG1, lambda) VH: QVQLVQSGAEVKKPGASVKVSCKASGYTFTSYDINWVRQAPGQGLEWMGWLNPNSGHTGYAQKFQGRVTMTADRSTSTAYMELSSLRSEDTAVYYCAREVPETAAFEYWGQGTLVTVSS VL: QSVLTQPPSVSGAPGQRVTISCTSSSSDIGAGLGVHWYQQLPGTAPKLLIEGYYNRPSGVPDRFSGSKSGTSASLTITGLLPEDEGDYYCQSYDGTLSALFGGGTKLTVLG : 126
320-570 (antibody, human IgG1, name in Kabat numbering, V domains shown, full-length human IgG1, lambda) VH: QVQLVQSGAEVKKPGASVKVSCKASGYTFTSYDINWVRQAPGQGLEWMGWLNPNSGNTGHAQKFQGRVTMTADRSTSTAYMELSSLRSEDTAVYYCAREVPETAAFEYWGQGTLVTVSS VL: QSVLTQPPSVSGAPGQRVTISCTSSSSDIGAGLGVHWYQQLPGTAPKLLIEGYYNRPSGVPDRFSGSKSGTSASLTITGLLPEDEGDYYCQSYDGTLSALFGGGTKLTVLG : 72
320-534 (antibody, human IgG1, name in Kabat numbering, V domains shown, full-length human IgG1, lambda) VH: QVQLVQSGAEVKKPGASVKVSCKASGYTFTSYDINWVRQAPGQGLEWMGWLNPNSDNTGYAQKFQGRVTMTADRSTSTAYMELSSLRSEDTAVYYCAREVPETAAFEYWGQGTLVTVSS VL: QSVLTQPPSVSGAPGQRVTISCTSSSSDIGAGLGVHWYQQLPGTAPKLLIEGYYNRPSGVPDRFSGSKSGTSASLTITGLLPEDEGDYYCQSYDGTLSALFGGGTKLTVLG : 102

Lab book: TL1A Binding Level (Late) of 320-522 (antibody, human IgG1, name in Kabat numbering, V domains shown, full-length human IgG1, lambda) VH: QVQLVQSGAEVKKPGASVKVSCKASGYTFTSYDINWVRQAPGQGLEWMGWLNPYSGNTGYAQKFQGRVTMTADRSTSTAYMELSSLRSEDTAVYYCAREVPETAAFEYWGQGTLVTVSS VL: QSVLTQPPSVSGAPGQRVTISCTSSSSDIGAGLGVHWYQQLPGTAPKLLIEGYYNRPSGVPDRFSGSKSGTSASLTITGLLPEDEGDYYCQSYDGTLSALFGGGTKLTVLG noted as 129

get_value(item= 320-572 (antibody, human IgG1, name in Kabat numbering, V domains shown, full-length human IgG1, lambda) VH: QVQLVQSGAEVKKPGASVKVSCKASGYTFTSYDINWVRQAPGQGLEWMGWLNPNSGNTGYSQKFQGRVTMTADRSTSTAYMELSSLRSEDTAVYYCAREVPETAAFEYWGQGTLVTVSS VL: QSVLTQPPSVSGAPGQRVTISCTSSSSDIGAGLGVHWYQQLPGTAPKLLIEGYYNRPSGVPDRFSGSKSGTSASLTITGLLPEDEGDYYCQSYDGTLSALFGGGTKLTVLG , readout=TL1A Binding Level (Late)) returns 90
